Provenance of the data: the supplement of paper PMC10567573

B1: PCDHGA10 (parent)
chain: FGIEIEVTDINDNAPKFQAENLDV

- Variants of: B1
- assay_explanation: protein stability index of a GFP-peptide fusion (GPS, HEK-293T) (PSI 1-6); higher = more stable;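 also: lentivirally expressed fusions sorted by FACS into six bins by GFP to DsRed ratio, PSI derived from sequencing read proportions per bin multiplied by bin number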
- experimental_parameters: c terminus: a fixed tail appended
measure_name: protein stability index

INSERT INTO measurements (mutation_string, measure_name, value_measured) VALUES
  ('E20C', 'protein stability index', 1.61),
  ('D12R', 'protein stability index', 2.48),
  ('E6A', 'protein stability index', 3.25),
  ('I5D', 'protein stability index', 4.58),
  ('K16T', 'protein stability index', 2.91),
  ('I5E', 'protein stability index', 5.17),
  ('I3P', 'protein stability index', 4.96),
  ('N13Y', 'protein stability index', 1.78),
  ('N21A', 'protein stability index', 2.49),
  ('D23H', 'protein stability index', 1.8),
  ('I10D', 'protein stability index', 4.78),
  ('I5M', 'protein stability index', 3.86),
  ('V24D', 'protein stability index', 4.22),
  ('N21C', 'protein stability index', 2.47),
  ('T8S', 'protein stability index', 2.77),
  ('D23Y', 'protein stability index', 1.69),
  ('A14R', 'protein stability index', 2.83),
  ('Q18F', 'protein stability index', 1.68),
  ('P15N', 'protein stability index', 3.6),
  ('K16E', 'protein stability index', 3.88),
  ('I10Q', 'protein stability index', 4.05),
  ('G2D', 'protein stability index', 2.72);
